system: HCT-8; assay: Antiproliferative activity against human HCT8 cells after 48 hrs by MTT assay; assay type: functional, cell-based; settings: HCT-8, 48 h
Measured metric: IC50 (µM)

COc1cccc2c1C(=O)c1c(O)c3c(c(O)c1C2=O)C[C@@](O)(C(=O)CO)C[C@@H]3O[C@H]1C[C@H](N)[C@H](O)[C@H](C)O1 :: 7.2
COc1ccc(C2CC(c3c(-c4ccccc4)c4ccccc4[nH]c3=O)=NN2c2ccccc2)cc1 (configuration not stated) :: 5.6

----------
Listed compounds paired with reported IC50
system: A549; experiment: Antiproliferative activity against human A549 cells after 72 hrs by MTT assay; format: functional, cell-based; settings: A549, 72 h
Measured metric: IC50

CCn1cc(C(=O)O)c(=O)c2cc(F)c(N3CCN(C(=N)NS(=O)(=O)c4ccccc4Cl)CC3)cc21 :: 32 to 79 nM
N=C(NS(=O)(=O)c1cccc(C(F)(F)F)c1)N1CCN(c2cc3c(cc2F)c(=O)c(C(=O)O)cn3-c2ccc(F)cc2F)CC1 :: 28 nM
N=C(NS(=O)(=O)c1ccc(Cl)cc1)N1CCN(c2cc3c(cc2F)c(=O)c(C(=O)O)cn3C2CC2)CC1 :: 32 to 161 nM
CCn1cc(C(=O)O)c(=O)c2cc(F)c(N3CCN(C(=N)NS(=O)(=O)c4ccc(C(F)(F)F)cc4)CC3)cc21 :: 32 to 161 nM
CCn1cc(C(=O)O)c(=O)c2cc(F)c(N3CCNCC3)cc21 :: > 302 nM
N=C(NS(=O)(=O)c1ccc(C(F)(F)F)cc1)N1CCN(c2cc3c(cc2F)c(=O)c(C(=O)O)cn3C2CC2)CC1 :: 32 to 161 nM
CCn1cc(C(=O)O)c(=O)c2cc(F)c(N3CCN(C(=N)NS(=O)(=O)c4ccc(Cl)cc4)CC3)cc21 :: 32 to 161 nM
O=C(O)c1cn(C2CC2)c2cc(N3CCNCC3)c(F)cc2c1=O :: > 302 nM

----------
tested on: MCF7; test: Cytotoxicity against human MCF7 cells assessed as reduction in cell viability by MTT assay; assay type: functional, cell-based
Measured metric: IC50

CCn1cc(C(=O)O)c(=O)c2cc(F)c(N3CCN(C/C(=N/OCc4ccccc4)c4cccs4)CC3)cc21 :: 2 to 131 µM
O=C(CN1CCN(c2cc3c(cc2F)c(=O)c(C(=O)O)cn3C2CC2)CC1)c1ccc(Cl)s1 :: ≥ 100 µM
CCn1cc(C(=O)O)c(=O)c2cc(F)c(N3CCN(CC(=O)c4cccs4)CC3)nc21 :: 2 to 131 µM
CCn1cc(C(=O)O)c(=O)c2cc(F)c(N3CCN(C/C(=N/OCc4ccccc4)c4ccc(Cl)s4)CC3)cc21 :: ≤ 20 µM
CCn1cc(C(=O)O)c(=O)c2cc(F)c(N3CCN(CC(=O)c4cccs4)CC3)cc21 :: 2 to 131 µM
COc1ccc2cc3[n+](cc2c1OCc1cn(Cc2cc(=O)[nH]c4ccccc24)nn1)-c1cc2c(cc1CC3)OCO2 :: 75.5 to 181 µM
CCn1cc(C(=O)O)c(=O)c2cc(F)c(N3CCN(C/C(=N/O)c4ccc(Cl)s4)CC3)cc21 :: ≤ 20 µM
CCn1cc(C(=O)O)c(=O)c2cc(F)c(N3CCN(C/C(=N/OCc4ccccc4)c4ccc(Cl)s4)CC3)nc21 :: ≤ 20 µM
CCn1cc(C(=O)O)c(=O)c2cc(F)c(N3CCN(C/C(=N/OC)c4ccc(Cl)s4)CC3)nc21 :: ≤ 20 µM
O=C(CN1CCN(c2cc3c(cc2F)c(=O)c(C(=O)O)cn3C2CC2)CC1)c1cccs1 :: 2 to 131 µM
O=C(O)c1cn(C2CC2)c2cc(N3CCN(C/C(=N/OCc4ccccc4)c4cccs4)CC3)c(F)cc2c1=O :: 2 to 131 µM
O=C(O)c1cn(C2CC2)c2cc(N3CCNCC3)c(F)cc2c1=O :: > 100 µM
CCn1cc(C(=O)O)c(=O)c2cc(F)c(N3CCN(C/C(=N/OC)c4cccs4)CC3)nc21 :: 2 to 131 µM
